The origin of these recorded values is patent US6169181A.

Molecular target: HIV-1 protease (Human immunodeficiency virus type 1 group M subtype B)
Experiment: biochemical
Conditions: Table I; Dose 3.300 μM; read-out: Protease % Inhib
Assay metric: inhibition at 3.3 µM (%)

compound="CCC(CC1CCOCC1)c1cc(O)c(C(c2cccc(NS(=O)(=O)c3cn(C)cn3)c2)C2CC2)c(=O)o1 (stereo not shown)" assay_metric="inhibition at 3.3 µM" value_measured=96.9
compound="CN(c1cccc(C(c2c(O)c3c(oc2=O)CCCCCC3)C2CC2)c1)S(=O)(=O)c1cn(C)cn1 (stereo not shown)" assay_metric="inhibition at 3.3 µM" value_measured=90.8
compound="O=C(O)c1ccc(S(=O)(=O)Cc2cccc(C(c3c(O)c4c(oc3=O)CCCCCC4)C3CC3)c2)cc1 (stereo not shown)" assay_metric="inhibition at 3.3 µM" value_measured=96.6
compound="CCC(CC1CCCOC1)c1cc(O)c(C(c2cccc(NS(=O)(=O)c3cn(C)cn3)c2)C2CC2)c(=O)o1 (stereo not shown) [Example 145B]" assay_metric="inhibition at 3.3 µM" value_measured=87.8

* * *

Target: HIV-1 protease (Human immunodeficiency virus type 1 group M subtype B)
Experiment: biochemical
Settings: Table I; Dose 30.000 μM; read-out: Protease % Inhib
Assay metric: inhibition at 30 µM (%)

compound="CCC(CCOCCOC)c1cc(O)c(C(c2cccc(NS(=O)(=O)c3ccc(C#N)cc3)c2)C2CC2)c(=O)o1 (stereo not shown) [Example 106]" assay_metric="inhibition at 30 µM" value_measured=106
compound="CCC(CCOCCOC)c1cc(O)c(C(c2cccc(NS(=O)(=O)c3cn(C)cn3)c2)C2CC2)c(=O)o1 (stereo not shown) [Example 105]" assay_metric="inhibition at 30 µM" value_measured=111
compound="O=c1oc(C(CC2CC2)CC2CC2)cc(O)c1C(c1cccc(NS(=O)(=O)c2ccc3ccccc3n2)c1)C1CC1 (stereo not shown) [Example 103]" assay_metric="inhibition at 30 µM" value_measured=96
compound="CN(c1cccc(C(c2c(O)c3c(oc2=O)CCCCCC3)C2CC2)c1)S(=O)(=O)c1cn(C)cn1 (stereo not shown) [Example 195]" assay_metric="inhibition at 30 µM" value_measured=92.7

* * *

The following molecules are shown together with reported inhibition at 0.123 µM values.
Biological target: HIV-1 protease (Human immunodeficiency virus type 1 group M subtype B, UniProt P04585)
Experiment: biochemical
Conditions: Table I; Dose 0.123 μM; read-out: Protease % Inhib
Assay metric: inhibition at 0.123 µM

molecule="Cn1cnc(S(=O)(=O)Nc2cccc(C(C3=C(O)CC(CCc4ccccc4)(CCc4ccccc4)OC3=O)C3CC3)c2)c1 (stereo not drawn)" assay_metric="inhibition at 0.123 µM" value_measured=76.2%
molecule="CC[C@H](Cc1ccccc1)c1cc(O)c(C(c2cccc(NS(=O)(=O)c3ccccn3)c2)C2CC2)c(=O)o1 (single isomer, unassigned)" assay_metric="inhibition at 0.123 µM" value_measured=78.7%
molecule="CCC(CC1CCOCC1)c1cc(O)c(C(c2cccc(NS(=O)(=O)c3nccn3C)c2)C2CC2)c(=O)o1 (stereo not drawn)" assay_metric="inhibition at 0.123 µM" value_measured=73.6%

* * *

The following compounds are shown together with reported inhibition at 1.1 µM values.
Target: HIV-1 protease (Human immunodeficiency virus type 1 group M subtype B)
Experiment: biochemical
Conditions: Table I; Dose 1.100 μM; read-out: Protease % Inhib
Assay metric: inhibition at 1.1 µM

compound="CCC(CC1CCCOC1)c1cc(O)c(C(c2cccc(NS(=O)(=O)c3cccc4cccnc34)c2)C2CC2)c(=O)o1 (stereo not shown) [Example 145A]" assay_metric="inhibition at 1.1 µM" value_measured=119%
compound="CCCC1(CCC)CC(O)=C(C(CC)c2cccc(NS(=O)(=O)c3ccc(C#N)cn3)c2)C(=O)O1 (stereo not shown) [Example 262]" assay_metric="inhibition at 1.1 µM" value_measured=97.1%
compound="CN(c1cccc(C(c2c(O)c3c(oc2=O)CCCCCC3)C2CC2)c1)S(=O)(=O)c1ccc(F)cc1 (stereo not shown) [Example 193]" assay_metric="inhibition at 1.1 µM" value_measured=77.7%
compound="CCCC1(CCC)CC(O)=C(C(c2cccc(NS(=O)(=O)c3cn(C)cn3)c2)C2CC2)C(=O)O1 (stereo not shown) [Example 48]" assay_metric="inhibition at 1.1 µM" value_measured=110%
compound="Cn1ccnc1S(=O)(=O)Nc1cccc(C(c2c(O)cc(C(CC3CC3)CC3CC3)oc2=O)C2CC2)c1 (stereo not shown) [Example 100]" assay_metric="inhibition at 1.1 µM" value_measured=91%
compound="CCC(CCOCCOC)c1cc(O)c(C(c2cccc(NS(=O)(=O)c3cn(C)cn3)c2)C2CC2)c(=O)o1 (stereo not shown) [Example 105]" assay_metric="inhibition at 1.1 µM" value_measured=107%
compound="CCCC1(CCc2ccccc2)CC(O)=C(C(c2cccc(NS(=O)(=O)c3cn(C)cn3)c2)C2CC2)C(=O)O1 (stereo not shown) [Example 61]" assay_metric="inhibition at 1.1 µM" value_measured=103%
